- targetSystem: S1P1 receptor coupled to Gαi1 (Homo sapiens)
- Sequence (P21453 whole entry): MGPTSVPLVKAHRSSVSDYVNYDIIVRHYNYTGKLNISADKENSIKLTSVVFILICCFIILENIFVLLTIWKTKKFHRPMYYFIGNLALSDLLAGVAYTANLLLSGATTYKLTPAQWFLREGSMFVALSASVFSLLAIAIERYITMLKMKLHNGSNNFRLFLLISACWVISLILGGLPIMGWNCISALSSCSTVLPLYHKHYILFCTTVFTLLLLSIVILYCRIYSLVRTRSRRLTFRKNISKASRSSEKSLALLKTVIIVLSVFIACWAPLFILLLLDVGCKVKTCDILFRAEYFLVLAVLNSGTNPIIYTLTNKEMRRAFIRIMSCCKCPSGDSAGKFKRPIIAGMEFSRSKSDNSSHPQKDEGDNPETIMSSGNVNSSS
- Sequence (P63096 2-354 partner limits assumed): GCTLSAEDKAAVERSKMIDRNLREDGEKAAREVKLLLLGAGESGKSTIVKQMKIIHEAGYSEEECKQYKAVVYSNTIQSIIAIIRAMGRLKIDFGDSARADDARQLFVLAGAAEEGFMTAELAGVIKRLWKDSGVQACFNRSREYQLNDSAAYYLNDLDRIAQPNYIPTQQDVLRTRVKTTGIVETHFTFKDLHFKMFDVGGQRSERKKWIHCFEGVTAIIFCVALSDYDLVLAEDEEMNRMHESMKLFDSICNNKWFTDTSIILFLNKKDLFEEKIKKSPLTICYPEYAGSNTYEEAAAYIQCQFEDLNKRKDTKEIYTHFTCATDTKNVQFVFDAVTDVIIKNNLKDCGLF
- Sequence (P62873 2-340 partner limits assumed): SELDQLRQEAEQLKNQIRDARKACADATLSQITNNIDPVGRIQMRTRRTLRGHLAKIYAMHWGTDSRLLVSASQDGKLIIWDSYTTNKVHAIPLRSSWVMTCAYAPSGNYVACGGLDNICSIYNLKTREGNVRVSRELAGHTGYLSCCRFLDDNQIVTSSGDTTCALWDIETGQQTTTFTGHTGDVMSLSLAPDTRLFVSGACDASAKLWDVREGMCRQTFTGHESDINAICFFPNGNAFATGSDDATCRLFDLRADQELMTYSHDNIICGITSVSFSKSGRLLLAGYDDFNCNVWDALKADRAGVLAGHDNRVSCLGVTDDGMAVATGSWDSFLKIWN
- Sequence (P59768 2-68 partner limits assumed): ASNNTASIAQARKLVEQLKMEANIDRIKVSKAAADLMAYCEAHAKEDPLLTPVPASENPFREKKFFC
- testDescription: Gα subtype-specific S1P1 receptor agonist activity (BRET, NPL 7), HEK 293T cells co-expressing S1P1 receptor, Gαi1, Gγ2 and Gβ1
- recordedConditions: Gαi1 expressed
pEC50: −log10 of the molar value.
property: pEC50

1: CCCCCCCCCCCCC/C=C/[C@@H](O)[C@@H](N)COP(=O)(O)O [Compound S1P, sphingosine-1-phosphate]
2: CCc1cc(/C(C)=N/OCc2ccc(C3CCCCC3)c(C(F)(F)F)c2)ccc1CN1CC(C(=O)O)C1
Inquiry: Response body: label of entry with the larger pEC50; valid values 1 , 2 . Provide the label of your selected option as the answer.
Reply text: 2
(2: 6.91, 1: 6.58)
